Each entry below carries its recorded MIC.
- System: HA-MRSA (ATCC 33591)
- protocol: Minimum inhibitory concentration (MIC), broth microdilution
- Format: cell-based, Staphylococcus aureus
- condition-parameters: Table 4; ATCC 33591; read-out: MIC HA-MRSA
Report the value in µM with no unit label.

Use these answered entries as a reference point.
smiles-notation: CCCCCCCCCCCCCCCC[N+](C)(C)CCN(C)C.[Br-]
MIC, µM: 2

smiles-notation: CCCCCCCCCCCCCCCC[N+](C)(C)CCCCC[N+](C)(C)CCCCCCCCCCCCCCCC.[Br-].[Br-]
MIC, µM: 1

smiles-notation: CCCCCCCCCCCC[n+]1ccc(-c2ccc[n+](CCCCCCCCCCCC)c2)cc1.[Br-].[Br-]
MIC, µM: 1

q: Quick one: MIC of CCCCCCCCCCCC[N+](C)(C)CCN(C)CC[N+](C)(C)CCCCCCCCCCCC.[Br-].[Br-] ?
a: 0.5

###

Each entry below carries its recorded MBEC CA-MRSA.
- Tested on: CA-MRSA (USA300-0114) biofilms
- protocol: Minimum biofilm eradication concentration (MBEC), regrowth assay
- Type: cell-based, Staphylococcus aureus
- condition-parameters: Table 5; USA300-0114

compound: CCCCCCCCCCCCCCCC[N+](C)(C)CCCCC[N+](C)(C)CCCCCCCCCCCCCCCC.[Br-].[Br-] [16,5,16]
MBEC CA-MRSA: >200 µM

q: Quick one: MBEC CA-MRSA of CCCCCCCCCCCC[N+](C)(C)CCN(C)CC[N+](C)(C)CCCCCCCCCCCC.[Br-].[Br-] [12,2,0,2,12] ?
a: 100 µM

q: Quick one: MBEC CA-MRSA of CCCCCCCCCCCC[N+](C)(C)CCCCC[N+](C)(C)CCCCCCCCCCCC.[Br-].[Br-] [12,5,12] ?
a: 100 µM

q: Quick one: MBEC CA-MRSA of CCCCCCCCCCCC[N+](C)(C)CCC[N+](C)(C)CCCCCCCCCCCC.[Br-].[Br-] [12,3,12] ?
a: 100 µM

q: Quick one: MBEC CA-MRSA of CCCCCCCCCC[N+](C)(C)CCCN(C)CCC[N+](C)(C)CCCCCCCCCC [10,3,0,3,10] ?
a: 150 ± 50 µM

q: Quick one: MBEC CA-MRSA of CCCCCCCCCCCC[N+](C)(C)CC[CH-][N+](C)(CCCCCCCCCCCS)CCC[N+](C)(C)CCCCCCCCCCCC (stereo not shown) [12,3,11-SH,3,12] ?
a: >200 µM

q: Quick one: MBEC CA-MRSA of CCCCCCCCCCCC[N+](C)(C)CCC[N+](C)(C)CCC[N+](C)(C)CCCCCCCCCCCC.[Br-].[Br-].[I-] [12,3,1,3,12] ?
a: 150 ± 50 µM

###

- Tested on: CA-MRSA (USA300-0114)
- protocol: Minimum inhibitory concentration (MIC), broth microdilution
- Format: cell-based, Staphylococcus aureus
- condition-parameters: Table 4; USA300-0114; read-out: MIC CA-MRSA
Each entry below carries its recorded log10(MIC).
For clarity, the numbers are log10 values of MIC expressed in µM.

Use these answered entries as a reference point.
molecule: CCCCCCCCCCCC[N+](C)(C)CC[N+](C)(C)CC[N+](C)(C)CCCCCCCCCCCC.[Br-].[Br-].[I-] [12,2,1,2,12]
log10(MIC): 0.00

molecule: CCCCCCCCCCCC[N+](C)(C)CCC[N+](C)(CCCC)CCC[N+](C)(C)CCCCCCCCCCCC.[Br-].[Br-].[Br-] [12,3,4,3,12]
log10(MIC): -0.30

molecule: CCCCCCCCCCCC[N+](C)(C)CCC[N+](C)(CCCCCCCCCCCC)CCC[N+](C)(C)CCCCCCCCCCCC.[Br-].[Br-].[Br-] [12,3,12,3,12]
log10(MIC): 0.00

q: Quick one: log10(MIC) of CCCCCCCCCCCC[N+](C)(C)CCC[N+](C)(C)CCC[N+](C)(C)CCCCCCCCCCCC.[Br-].[Br-].[I-] [12,3,1,3,12] ?
a: -0.30

q: Quick one: log10(MIC) of CCCCCCCCCCCC[N+](C)(C)CCN(C)CCN(C)CC[N+](C)(C)CCCCCCCCCCCC.[Br-].[Br-] [N4-12,0,0,12] ?
a: 0.00

q: Quick one: log10(MIC) of CCCCCCCCCCCC[N+](C)(C)CC[N+](C)(C)CCCCCCCCCCCC [12,2,12] ?
a: -0.30

q: Quick one: log10(MIC) of CCCCCCCCCCCC[N+](C)(C)CCC[N+](C)(CCC[N+](C)(C)CCCCCCCCCCCC)Cc1ccc(CCCCCCCC)cc1.[Br-].[Br-].[Br-] [12,3,Bn-8,3,12] ?
a: 0.30

q: Quick one: log10(MIC) of CCCCCCCCCCCC[N+](C)(C)CCCN(C)C.[Br-] [12,3,0] ?
a: 0.90

q: Quick one: log10(MIC) of CCCCCCCCCCCCCCCC[N+](C)(C)CCN(C)C.[Br-] [16,2,0] ?
a: 0.60

###

Each entry below carries its recorded MIC.
- System: Enterococcus faecalis (OG1RF)
- protocol: Minimum inhibitory concentration (MIC), broth microdilution
- Format: cell-based
- condition-parameters: Table 3; read-out: MIC E. faecalis
- Experimental: The term “minimum inhibitory concentration (MIC)” means the lowest concentration of an antimicrobial agent that will inhibit the visible growth of a microorganism after overnight incubation. MIC values against bacteria, for example, the Gram-positive Staphylococcus aureus and Enterococcus faecalis and the Gram-negative Escherichia coli and Pseudomonas aeruginosa were determined by standard methods. […] Minimum inhibitory concentration (MIC) values against bacteria were measured using standard method. […]
Lab note: write values as number then unit, every time.

Use these answered entries as a reference point.
compound: C=CC[N+](C)(CC[N+](C)(C)CCCCCCCCCCCC)CC[N+](C)(CC=C)CC[N+](C)(C)CCCCCCCCCCCC.[Br-].[Br-].[Br-].[Br-] (stereo not shown)
MIC: 1 µM

compound: CCCCCCCCCC[N+](C)(C)CCCCC[N+](C)(C)CCCCCCCCCC.[Br-].[Br-]
MIC: 4 µM

q: Quick one: MIC of C=CC[N+](C)(CC[N+](C)(C)CCCCCCCCCCCCCCCC)CC[N+](C)(C)CCCCCCCCCCCCCCCC.[Br-].[Br-].[Br-] ?
a: 4 µM

q: Quick one: MIC of CCCCCCCCCCCCCC[N+](C)(C)CCN(C)CCN(C)CC[N+](C)(C)CCCCCCCCCCCCCC.[Br-].[Br-] ?
a: 1 µM

q: Quick one: MIC of CCCCCCCCCCC[N+](C)(C)CCN(C)CC[N+](C)(C)CCCCCCCCCCC.[Br-].[Br-] ?
a: 2 µM

q: Quick one: MIC of CCCCCCCCCCCC[N+](C)(C)CCCN(C)CCC[N+](C)(C)CCCCCCCCCCCC.[Br-].[Br-] ?
a: 2 µM

q: Quick one: MIC of CCCCCCCCCCC[N+](C)(C)CC[N+](C)(C)CC[N+](C)(C)CCCCCCCCCCC.[Br-].[Br-].[I-] ?
a: 2 µM

###

- Tested on: Staphylococcus aureus MSSA (SH1000)
- protocol: Minimum inhibitory concentration (MIC), broth microdilution
- Assay type: cell-based
- condition-parameters: Table 4; SH1000; read-out: MIC MSSA
quantity-name: MIC (µM)
Report the value in µM with no unit label.

Use these answered entries as a reference point.
molecule: CCCCCCCCCCCC[N+](C)(C)CCC[N+](C)(C)CCC[N+](C)(C)CCCCCCCCCCCC.[Br-].[Br-].[I-] [12,3,1,3,12]
unit-abbreviation: µM
MIC: 1

molecule: CCCCCCCCCCCC[N+](C)(C)CCN(C)CC[N+](C)(C)CCCCCCCCCCCC.[Br-].[Br-] [12,2,0,2,12]
unit-abbreviation: µM
MIC: 1

molecule: CCCCCCCCCCCC[n+]1ccc(-c2ccc[n+](CCCCCCCCCCCC)c2)cc1.[Br-].[Br-] [PMQ-12,12]
unit-abbreviation: µM
MIC: 1

molecule: CCCCCCCCCCCC[N+](C)(C)CCC[N+](C)(CC)CCC[N+](C)(C)CCCCCCCCCCCC.[Br-].[Br-].[Br-] [12,3,2,3,12]
unit-abbreviation: µM
MIC: 0.5

molecule: CCCCCCCCCCCCCCCC[N+](C)(C)CCN(C)C.[Br-] [16,2,0]
unit-abbreviation: µM
MIC: 1

molecule: CCCCCCCCCCCC[N+](C)(C)CCCN(C)C.[Br-] [12,3,0]
unit-abbreviation: µM
MIC: 4

molecule: CCCCCCCCCCCC[N+](C)(C)CCC[N+](C)(C)CCCCCCCCCCCC.[Br-].[Br-] [12,3,12]
unit-abbreviation: µM
MIC: 2

molecule: CCCCCCCCCCCCCCCC[n+]1ccccc1.[Cl-] [Pyr,16, reference compound]
unit-abbreviation: µM
MIC: 0.5

q: Quick one: MIC of CCCCCCCCCC[N+](C)(C)CCCCCCCCCC.[Cl-] [10,10, reference compound] ?
a: 1

q: Quick one: MIC of C=CC[N+](C)(CCC[N+](C)(C)CCCCCCCCCCCC)CCC[N+](C)(C)CCCCCCCCCCCC.[Br-].[Br-].[Br-] [12,3,3A,3,12] ?
a: 1

q: Quick one: MIC of CCCCCCCCCCCC[N+](C)(C)CCC[N+](C)(CCC[N+](C)(C)CCCCCCCCCCCC)Cc1ccccc1.[Br-].[Br-].[Br-] [12,3,Bn,3,12] ?
a: 2

q: Quick one: MIC of C=CC[N+](C)(CC[N+](C)(C)CCCCCCCCCCCC)CC[N+](C)(C)CCCCCCCCCCCC.[Br-].[Br-].[Br-] [12,2,3A,2,12] ?
a: 2

q: Quick one: MIC of CCCCCCCCCCCC[N+](C)(C)CCC[N+](C)(CCC[N+](C)(C)CCCCCCCCCCCC)Cc1ccc(CCCCCCCC)cc1.[Br-].[Br-].[Br-] [12,3,Bn-8,3,12] ?
a: 2

q: Quick one: MIC of CCCCCCCCCCCCCCCC[N+](C)(C)CCCCC[N+](C)(C)CCCCCCCCCCCCCCCC.[Br-].[Br-] [16,5,16] ?
a: 2

q: Quick one: MIC of CCCCCCCCCCCC[N+](C)(C)CCC[N+](C)(CCCCCCCCCCCC)CCC[N+](C)(C)CCCCCCCCCCCC.[Br-].[Br-].[Br-] [12,3,12,3,12] ?
a: 0.5
